- MEASURED_ON: SCRIB_2, Q14160
- Sequence (Q14160 857-960): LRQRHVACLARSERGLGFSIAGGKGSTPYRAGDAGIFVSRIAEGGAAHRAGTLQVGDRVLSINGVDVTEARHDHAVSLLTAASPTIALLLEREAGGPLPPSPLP
- ASSAY_TEXT: holdup assay
- Parameters: key: below the threshold = too weak to quantify, mostly under pKd 3.1 to 4
- STATED_CONDITIONS: plain residues with an end cap or a label only (N-terminal biotin on a linker: ado-ado)
VALUE_TYPE: pKd

Record summary for NKSEPFLTWL [WWTR1, Q9GZV5] : reported pKd = below the threshold

Record summary for KLQNPNQSVV [TYRP1, P17643] : reported pKd = below the threshold

Record summary for SQDPKKPSRV [CBY2, Q8NA61] : reported pKd = below the threshold
